System: Escherichia coli TOP10;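 note: peptides expressed intracellularly from a pBAD plasmid library in pooled LB shake-flask culture, induced with 0.3% L-arabinose, DNA abundance read by NGS, three biological replicates, DESeq2 with apeglm shrinkage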
Test Method Notes: shrunken log2 fold change of peptide-encoding DNA abundance (4.5 h post-induction vs induction); higher = less antimicrobial activity (less host growth inhibition)
Condition Info: time post-induction: 4.5 h; library: site-saturation at positions 5, 18, 19, 20
Label Y when shrunken log2 fold change >= 0.01; otherwise N.

RRIRHRPPRLPRPRPRPHIYPRP
N
RRIRLRPPRLPRPRPRPIQDPRP
N
RRIRYRPPRLPRPRPRPAQAPRP
Y

Tell me whether shrunken log2 fold change is at least 0.01 here: RRIRFRPPRLPRPRPRPVFQPRP
Y

Tell me whether shrunken log2 fold change is at least 0.01 here: RRIRRRPPRLPRPRPRPLFRPRP
Y

Tell me whether shrunken log2 fold change is at least 0.01 here: RRIRYRPPRLPRPRPRPIKSPRP
N

Tell me whether shrunken log2 fold change is at least 0.01 here: RRIRQRPPRLPRPRPRPFMDPRP
Y

Tell me whether shrunken log2 fold change is at least 0.01 here: RRIRARPPRLPRPRPRPVEHPRP
Y

Tell me whether shrunken log2 fold change is at least 0.01 here: RRIRNRPPRLPRPRPRPYAIPRP
N
